Source listed as patent US11008403.

Reported EC50 values for a set of binders
target: human TfR ECD (human); experiment: ELISA
Sequence (chain, as listed by the source): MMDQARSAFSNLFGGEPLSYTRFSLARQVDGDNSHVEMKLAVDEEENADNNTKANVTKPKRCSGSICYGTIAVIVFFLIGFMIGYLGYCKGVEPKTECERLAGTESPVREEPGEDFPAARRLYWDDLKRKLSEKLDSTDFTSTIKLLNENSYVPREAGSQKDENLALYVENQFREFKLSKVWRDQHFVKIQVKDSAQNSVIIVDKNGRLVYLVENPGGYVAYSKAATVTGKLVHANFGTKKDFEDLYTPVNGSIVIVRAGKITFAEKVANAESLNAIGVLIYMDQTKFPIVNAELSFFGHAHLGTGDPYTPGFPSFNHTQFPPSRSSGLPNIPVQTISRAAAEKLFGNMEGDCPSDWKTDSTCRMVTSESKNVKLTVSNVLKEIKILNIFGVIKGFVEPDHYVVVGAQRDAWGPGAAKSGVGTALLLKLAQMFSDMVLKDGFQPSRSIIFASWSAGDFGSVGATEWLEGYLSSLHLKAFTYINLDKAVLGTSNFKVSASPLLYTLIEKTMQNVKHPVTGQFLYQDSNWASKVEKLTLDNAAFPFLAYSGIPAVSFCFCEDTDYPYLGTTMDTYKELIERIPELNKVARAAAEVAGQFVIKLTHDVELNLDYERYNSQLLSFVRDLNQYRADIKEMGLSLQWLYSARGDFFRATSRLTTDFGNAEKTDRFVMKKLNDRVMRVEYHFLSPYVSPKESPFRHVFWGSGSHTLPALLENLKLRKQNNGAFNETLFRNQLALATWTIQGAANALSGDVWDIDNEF
Write down the numeric answer in ng/mL and omit the unit.

binder: hu15G11.v5 HC N52A (antibody, V domains shown) VH: EVQLVQSGAEVKKPGASVKVSCKASGYTFTSYWMHWVRQAPGQRLEWIGEIAPTNGRTNYIEKFKSRATLTVDKSASTAYMELSSLRSEDTAVYYCARGTRAYHYWGQGTMVTVSS VL: DIQMTQSPSSLSASVGDRVTITCRASDNLYSNLAWYQQKPGKSPKLLVYDATNLADGVPSRFSGSGSGTDYTLTISSLQPEDFATYYCQHFWGTPLTFGQGTKVEIK
EC50 / ng/mL: 0.3

Would you kindly look at the next entry?
Answer with the recorded EC50 of hu15G11.v5 IgG (antibody, V domains shown) VH: EVQLVQSGAEVKKPGASVKVSCKASGYTFTSYWMHWVRQAPGQRLEWIGEINPTNGRTNYIEKFKSRATLTVDKSASTAYMELSSLRSEDTAVYYCARGTRAYHYWGQGTMVTVSS VL: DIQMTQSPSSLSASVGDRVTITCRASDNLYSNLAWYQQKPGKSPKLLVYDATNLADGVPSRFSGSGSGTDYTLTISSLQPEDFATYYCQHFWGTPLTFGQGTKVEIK only.
0.8
